In this section, each of the compounds is paired with its reported IC50.
system: MOLT-3 human leukemia cells; assay: MTT cytotoxicity assay, MOLT-3; assay type: cell-based; conditions: Homo sapiens, MOLT-3, Table 1, bromo substituted, 24–36 hours
METRIC: IC50

COMPOUND_STRUCTURE	STUDY_SYSTEM	METRIC	RESULT
COc1cc2ncnc(Nc3c(Br)cc(C)cc3Br)c2cc1OC	MOLT-3 human leukemia cells	IC50	> 250 µM
COc1cc2ncnc(Nc3ccc(C)c(Br)c3Br)c2cc1OC	MOLT-3 human leukemia cells	IC50	> 250 µM
COc1cc2ncnc(Nc3cccc(Br)c3)c2cc1OC	MOLT-3 human leukemia cells	IC50	195 µM
COc1cc2ncnc(Nc3ccc(Br)cc3C(=O)O)c2cc1OC	MOLT-3 human leukemia cells	IC50	> 250 µM
COc1cc2ncnc(Nc3cc(Br)c(C)cc3Br)c2cc1OC	MOLT-3 human leukemia cells	IC50	> 250 µM
COc1cc2ncnc(Nc3cc(Br)c(O)c(Br)c3)c2cc1OC	MOLT-3 human leukemia cells	IC50	> 250 µM
COc1cc2ncnc(Nc3ccc4c(c3)Cc3cc(Br)ccc3-4)c2cc1OC	MOLT-3 human leukemia cells	IC50	241 µM
COc1cc2ncnc(Nc3ccc(Br)cc3CO)c2cc1OC	MOLT-3 human leukemia cells	IC50	> 250 µM
